From: the nanobody polyreactivity screen of Harvey et al. (2022)

# assay_text: yeast display, Sf9 membrane polyspecificity reagent, FACS + sequencing; frameworks hold sequencing errors
parameter_measured: polyreactivity (PSR sort gate)

seq_string=QVQLVESGGGLVQAGGSLRLSCAASGRTFLRYAMGWYRQAPGKEREFVAAISYSGSRTYYADSVKGRFTISRDTAKKTVYLQMNSLKPEDTAVYYCATDSDARVELAGYDYWGQGTQVTVSS parameter_measured="polyreactivity (PSR sort gate)" result="high polyreactivity"
seq_string=QVQLVESGRGLVQAGGSLRLSCAASGSTFVKYAMGWYRPAPGKERELVAAMNRSGASTYYADSVKGRFTISRDNAKNTVYLQMNSLKPEDTAVYYCAARFSWLGYYWGQGTQVTVSS parameter_measured="polyreactivity (PSR sort gate)" result="high polyreactivity"
seq_string=QVQLEESGGGLVQAGGSLRLSCAASGRTFSRNAMGWYRQAPGKERELVAAITKGGGSTYYADSVKGRFTISRDNAKNTVYLQMNSLKPEDTAVYYCAARKRPPYGYGYWGQGTQVTVSS parameter_measured="polyreactivity (PSR sort gate)" result="high polyreactivity"
seq_string=QVQLVESGGGLVQAGGSLRLSCAASGRIFVFYAMGWYRQAPGKERELVAAITASSTRTYYADSVKGRFTISRDHAKNTVYLQLNSLKPEDTAVYYCARDIRQYILYGRGDYWGQGTQVTVSS parameter_measured="polyreactivity (PSR sort gate)" result="low polyreactivity"
seq_string=QVQLVESGGGLVQAGGSLRLTCAASGRTFNVNVMGWSRQAPGKERELVAAIRYTGGSTYADSVKGRFTISRDNAKNTVYLQMNSLKPEDTAVYYCNADTFFPFDHGMDYWGQGTQVTVSS parameter_measured="polyreactivity (PSR sort gate)" result="low polyreactivity"

Recorded polyreactivity (PSR sort gate) for QVQLVESGGGIVQPGGRLRLSCAASGSILYGYAMGWYRQAPGKERELVAVITSGGSTNYADTVKGRFTISRDNAKNTVYLQMNSLKPEDTAVYYCAADPYSVYGGDYWGQGTQVTVSS , please?
low polyreactivity

Look up polyreactivity (PSR sort gate) for this sequence: QVQLVESVGGLVQAGGSLRLSCAASGRIFLIYSMGWYRQAPGKERELVADISKGGSSTYYADSVKGRFTISRDNAKNTVYLQMNSLKPEDSAVYYCAASGRWTGRQAAYDYWGQGTQVTVSS
high polyreactivity

Give its polyreactivity (PSR sort gate) value. Item: QDQLVESGGGLVQAGGSLRLSCAASGSIFTFNTMGWYRQAPVKERELVATISSGGRTYYADSVKGRFTISRDNAKNTVYLQMNSLKPEDTSVYYCNKGYYGYTYVEYNYWGQGTQVTVSS
low polyreactivity

// returns reported polyreactivity (PSR sort gate) for input QVQLVESGGGLVQAGGSLRLSCAASGRIFRGYAMGWYRQAPGTERELVAAITRGGSTKYADSVKGRFTISRDNAKNTVYLQMNSLKPEDTAVYYCAKDSYPYVPLYRSRSLYGYWGQGTQVTVSS
high polyreactivity

Given the sequence QVQLVESGGGLVQAGGSLRLICAASGNTFSAYGMGYYRQAAGKERELVAGITNGGSTNYADSVKGRFTISRDNAMNTVYLQMNSLKPEDTAVYYCATVQYVEPPTPVDYWGQGTQVTVSS , what is its reported polyreactivity (PSR sort gate)?
low polyreactivity

Which measured polyreactivity (PSR sort gate) value corresponds to QVHLVESGGGLVQAGGSLRLSCAASGRTFENNAMGWYRPAPGKESELVAAITVSGGSTYYADSVKGRFTLSRDNAKNTVDLQMNSLKPEDTAVYYCAIVGFGIPGGFYYWGEGTQVTVSS ?
low polyreactivity
